# inhibition of growth at 10 µM per entry
- System: IGROV-1
- Procedure Summary: Antitumor activity against human IGROV1 cells assessed as cell growth inhibition at 10 uM incubated for 48 hrs by sulforhodamine B assay
- Format: functional
- Condition Summary: read-out: GI

Per the records, this molecule ( `CCN(CC)c1ccc(-c2nc3c4ccccc4c4ccccc4c3o2)c(O)c1` ) has inhibition of growth at 10 µM equal to 19.2%

Per the records, this molecule ( `Oc1ccccc1-c1nc2c3ccccc3c3ccccc3c2[nH]1` ) has inhibition of growth at 10 µM equal to 23.5%

Per the records, this molecule ( `O=Cc1ccc(-c2nc3c([nH]2)-c2cccc4cccc-3c24)cc1` ) has inhibition of growth at 10 µM equal to 28.9%

Per the records, this molecule ( `O=C1c2ccccc2C(=O)c2c1ccc1[nH]c(-c3ccc(-c4nc5c6ccccc6c6ccccc6c5[nH]4)cc3)nc21` ) has inhibition of growth at 10 µM equal to < 10%

Per the records, this molecule ( `Oc1ccccc1-c1nc2c3ccccc3c3ccccc3c2o1` ) has inhibition of growth at 10 µM equal to 25.9%

Per the records, this molecule ( `c1cc2ccc3ccc(-c4nc5c6ccccc6c6ccccc6c5[nH]4)c4ccc(c1)c2c34` ) has inhibition of growth at 10 µM equal to 13.2%

Per the records, this molecule ( `CCN(CC)c1ccc(-c2nc3c4ccccc4c4ccccc4c3[nH]2)c(O)c1` ) has inhibition of growth at 10 µM equal to < 10%

Per the records, this molecule ( `O=C1NC(=O)/C(=C/c2ccc(-c3nc4c5ccccc5c5ccccc5c4[nH]3)cc2)S1` ) has inhibition of growth at 10 µM equal to < 10%

Per the records, this molecule ( `O=c1[nH]cc(F)c(=O)[nH]1` ) has inhibition of growth at 10 µM equal to 51.2%

Just for reference, ChEMBL document CHEMBL4665624 is where these values come from.
